Experiment: n-octanol/water partition coefficient by shake-flask ultraviolet spectrophotometry
Type: physicochemical
Settings: room temperature, read-out: n-octanol/water partition coefficient (Log P)
MEASURE NAME: logP at 10 µM

Input: So what's the measured logP at 10 µM for this one? CN1CCN(c2ccc(/C=C/c3ccc4cc(-c5ccncc5)ccc4[n+]3C)cc2)CC1
Output: ~-0.65

* * *

Test: UV-visible absorption of PyQPMe in aqueous buffers pH 4.0-8.0
Format: physicochemical
Details: aqueous buffers; from absorption at 394 and 447 nm, pH 8.0 to 4.0; read-out: apparent pKa value
MEASURE NAME: pKa

Input: So what's the measured pKa for this one? CN1CCN(c2ccc(/C=C/c3ccc4cc(-c5ccncc5)ccc4[n+]3C)cc2)CC1
Output: ~5

Origin of the recorded values: patent US20260318831A1
